target: MMP-2 (Gel-A) (Homo sapiens, UniProt P08253)
Sequence (P08253 110-660): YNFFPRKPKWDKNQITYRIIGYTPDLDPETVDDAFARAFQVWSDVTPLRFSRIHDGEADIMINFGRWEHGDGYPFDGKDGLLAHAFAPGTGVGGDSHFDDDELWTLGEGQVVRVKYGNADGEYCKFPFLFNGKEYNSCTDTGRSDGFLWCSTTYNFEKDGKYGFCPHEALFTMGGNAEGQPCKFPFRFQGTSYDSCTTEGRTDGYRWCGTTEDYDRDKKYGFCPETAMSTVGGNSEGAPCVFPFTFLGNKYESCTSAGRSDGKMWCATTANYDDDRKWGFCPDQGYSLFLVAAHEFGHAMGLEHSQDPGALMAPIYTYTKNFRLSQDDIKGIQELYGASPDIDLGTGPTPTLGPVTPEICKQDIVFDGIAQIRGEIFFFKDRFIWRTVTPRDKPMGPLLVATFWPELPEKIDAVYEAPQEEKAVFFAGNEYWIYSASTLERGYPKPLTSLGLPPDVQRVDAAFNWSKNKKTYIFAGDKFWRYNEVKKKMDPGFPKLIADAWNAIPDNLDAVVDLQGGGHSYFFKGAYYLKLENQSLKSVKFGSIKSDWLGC
assay-protocol: Ki determination with fluorogenic synthetic substrates, recombinant MMP-2
study-conditions: Tris/50 mM HCl buffer, pH 6.8, 10 mM CaCl2, 25° C.; read-out: affinity constant Ki, MMP-2 Gel-A
measured-parameter: pKi
// pKi: -log10(molar conc.)

Challenge: Endpoint output: pKi of CC(NC(=O)OCc1ccccc1)P(=O)(O)CC(CCCc1ccccc1)C(=O)NC(Cc1c[nH]c2ccccc12)C(N)=O (centres unmarked) [Compound 9] . Value?
Response given: 7.51

Challenge: I am curious: what pKi value has been reported for CC(=O)NC(Cc1ccccc1)P(=O)(O)CC(CCCc1ccccc1)C(=O)NC(Cc1c[nH]c2ccccc12)C(N)=O (centres unmarked) [Compound 25] ?
Response given: 7.59

Challenge: Value lookup for pKi; key = NC(=O)C(Cc1c[nH]c2ccccc12)NC(=O)C(CCCc1ccccc1)CP(=O)(O)C(Cc1ccccc1)NC(=O)CNc1cc(Cl)ccc1O (centres unmarked) [Compound 29]
Response given: 7.52

Challenge: Need pKi, item NC(=O)C(Cc1c[nH]c2ccccc12)NC(=O)C(CCCc1ccccc1)CP(=O)(O)C(Cc1ccccc1)NC(=O)c1ccc2ccccc2n1 (centres unmarked) [Compound 32]
Response given: 7.72

Challenge: Data request, read-out pKi, for NC(=O)C(Cc1c[nH]c2ccccc12)NC(=O)C(CCCc1ccccc1)CP(=O)(O)C(Cc1ccccc1)NC(=O)OCc1ccccc1 (single isomer, unassigned) [Compound 15 S II]
Response given: 6.44
